GI50 values, listed per item
System: HOP-92
Assay: NCI tumour cell line growth inhibition, 48 h
Active and inactive are the calls of the source. No stated cut-off is given here; in the data, active = GI50 up to about 1.1 µM and inactive = higher.

In [3]: df
Out[3]:
                                   compound  measurement_type       value_reported
0                     N#Cc1nc(Cc2cccs2)oc1N              GI50  > 100 µM (inactive)
1  CCN(CC)CCn1ncc2ccc3c(c(=O)c4cccnc4n3CCN(CC)CC)c21              GI50   1.38 µM (inactive)
2  CCCN(CCC)C(=O)Cc1c2n(c3ccccc13)CCCc1ccccc1-2              GI50    4.2 µM (inactive)
3                O=C1CCCC/C1=C\c1ccc(Br)cc1              GI50   17.1 µM (inactive)
4                 COc1ccc(C#CC(=O)O)c(OC)c1              GI50  > 100 µM (inactive)
5  CCCC(=O)c1c(NOC2OCC(OC(C)=O)C(OC(C)=O)C2OC(C)=O)nc(OC)n(C)c1=O (stereo not given)              GI50  > 100 µM (inactive)
6  CC(=O)Nc1ccc(/C=c2\sc3nnc(CCC(=O)Nc4ccccc4Cl)n3c2=O)cc1              GI50   27.4 µM (inactive)
7  CCOC(=O)N1CCN(Cc2cc(=O)n3ccc(C)cc3n2)CC1              GI50  > 100 µM (inactive)
8  C1=CC=C2NCCCCCC/N=C3\C=CC=CC=C3NCCc3cccc(c3)CC/N=C/2C=C1              GI50   23.7 µM (inactive)
9  O=C(Nc1ccc(Cl)c(Cl)c1)OCCN1c2ccccc2Sc2ccccc21              GI50   > 10 µM (inactive)

### Prompt Entry under review: CCCCCCCCCCCCCCCCOP(=O)(O)OP(=O)(O)OCC1OC(n2cnc3c(N)ncnc32)C(O)C1O (stereo not given) . Reported GI50?
### Response 19.1 µM (inactive)

### Prompt Moving on to CC(C)(O)C1COC2=C1C(=O)c1ccccc1C2=O (stereo not given)
### Response 27.5 µM (inactive)

### Prompt Moving on to COc1ccc(N2C(=O)c3cc([N+](=O)[O-])cnc3S2(=O)=O)cc1
### Response > 100 µM (inactive)

### Prompt Moving on to COc1ccc(/N=c2\ssc(C(=S)Nc3ccc(OC)cc3)c2S)cc1
### Response > 100 µM (inactive)

### Prompt Moving on to CC(=O)O[C@H]1CCC2[C@@H]3CCC4=C(O)c5nocc5C[C@]4(C)C3CC[C@@]21C (stereo not given in full)
### Response > 100 µM (inactive)
